# system-name: human complement protein C3 (human) (UniProt P01024)
# Sequence (P01024 23-667, chain 1 of 2): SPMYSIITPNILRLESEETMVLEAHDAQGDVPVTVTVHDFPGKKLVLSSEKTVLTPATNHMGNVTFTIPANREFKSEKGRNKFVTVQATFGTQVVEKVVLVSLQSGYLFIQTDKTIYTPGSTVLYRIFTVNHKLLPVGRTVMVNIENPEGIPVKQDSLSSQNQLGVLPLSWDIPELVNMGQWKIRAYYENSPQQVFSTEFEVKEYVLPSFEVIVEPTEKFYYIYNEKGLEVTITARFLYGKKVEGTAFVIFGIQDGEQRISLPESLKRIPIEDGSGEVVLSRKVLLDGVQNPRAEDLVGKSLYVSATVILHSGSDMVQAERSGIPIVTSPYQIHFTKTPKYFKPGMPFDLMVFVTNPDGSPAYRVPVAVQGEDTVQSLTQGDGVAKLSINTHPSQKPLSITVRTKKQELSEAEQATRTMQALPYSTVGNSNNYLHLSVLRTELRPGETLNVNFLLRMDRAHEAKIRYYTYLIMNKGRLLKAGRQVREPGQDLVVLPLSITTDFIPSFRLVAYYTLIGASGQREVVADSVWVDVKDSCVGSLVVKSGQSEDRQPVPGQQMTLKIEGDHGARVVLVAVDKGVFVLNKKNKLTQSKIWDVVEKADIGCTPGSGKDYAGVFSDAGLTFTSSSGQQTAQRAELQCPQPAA
# Sequence (P01024 672-1663, chain 2 of 2): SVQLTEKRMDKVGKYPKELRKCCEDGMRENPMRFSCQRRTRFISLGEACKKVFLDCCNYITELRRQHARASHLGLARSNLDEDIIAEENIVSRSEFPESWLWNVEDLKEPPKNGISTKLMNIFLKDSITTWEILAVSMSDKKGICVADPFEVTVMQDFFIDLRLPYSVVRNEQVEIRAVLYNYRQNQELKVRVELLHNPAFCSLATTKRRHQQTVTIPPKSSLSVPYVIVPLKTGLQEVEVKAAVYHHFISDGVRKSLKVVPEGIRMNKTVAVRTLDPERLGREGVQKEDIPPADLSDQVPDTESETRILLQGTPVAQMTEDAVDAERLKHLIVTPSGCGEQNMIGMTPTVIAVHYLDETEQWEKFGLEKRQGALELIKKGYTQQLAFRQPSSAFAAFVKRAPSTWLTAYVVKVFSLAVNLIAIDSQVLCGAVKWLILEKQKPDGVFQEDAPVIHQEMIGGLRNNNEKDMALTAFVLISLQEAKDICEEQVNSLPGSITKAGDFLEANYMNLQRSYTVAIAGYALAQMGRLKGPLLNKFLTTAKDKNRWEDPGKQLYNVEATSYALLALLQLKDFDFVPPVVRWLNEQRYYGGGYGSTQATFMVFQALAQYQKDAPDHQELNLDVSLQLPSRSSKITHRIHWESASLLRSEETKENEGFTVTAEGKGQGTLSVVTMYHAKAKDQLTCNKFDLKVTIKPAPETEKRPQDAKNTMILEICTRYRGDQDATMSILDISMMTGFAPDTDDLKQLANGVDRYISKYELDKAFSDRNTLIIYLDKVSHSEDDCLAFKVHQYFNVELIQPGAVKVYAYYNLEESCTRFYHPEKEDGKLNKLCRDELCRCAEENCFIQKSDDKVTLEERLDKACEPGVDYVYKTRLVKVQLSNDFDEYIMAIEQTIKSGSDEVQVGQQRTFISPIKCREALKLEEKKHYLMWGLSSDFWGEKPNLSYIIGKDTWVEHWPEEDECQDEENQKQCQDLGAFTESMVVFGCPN
# experiment-description: cell-based or functional assay
Listed binders paired with reported EC50 (nM), cleavage of purified hC3 in vitro
Response body: numeric value in nM, unit text excluded.

Q38H/I41A/D60bV/F60eR/Y60gW/D96I/ins97aN/F97Y/T98G/F99L/C122S/G151N/Q175L/Q192D (enzyme) VVGGTDADEGEWPWQVSLHALGHGHACGASLISPNWLVSAAHCYIDVRGRRWSDPTQWTAFLGLHDQSQRSAPGVQERRLKRIISHPFFNIYNGLDYDIALLELEKPAEYSSMVRPISLPDASHVFPAGKAIWVTGWGHTQYGGTNALILQKGEIRVINQTTCENLLPQLITPRMMCVGFLSGGVDSCDGDSGGPLSSVEADGRIFQAGVVSWGDGCAQRNKPGVYTRLPLFRDWIKENTGV : 2.23

As a next step, examine the binder that follows.
Exercise: State the recorded EC50 (nM), cleavage of purified hC3 in vitro for this entry: Q38R/I41S/D60bY/F60eD/ins97aV/F97D/T98P/F99L/C122S/G151N/Q175M/Q192A (enzyme) VVGGTDADEGEWPWQVSLHALGRGHSCGASLISPNWLVSAAHCYIDYRGDRYSDPTQWTAFLGLHDQSQRSAPGVQERRLKRIISHPFFNDDVPLDYDIALLELEKPAEYSSMVRPISLPDASHVFPAGKAIWVTGWGHTQYGGTNALILQKGEIRVINQTTCENLLPQMITPRMMCVGFLSGGVDSCAGDSGGPLSSVEADGRIFQAGVVSWGDGCAQRNKPGVYTRLPLFRDWIKENTGV
Solution: 3.22
